- Test system: SNB-19 CNS
- measurement.notes: NCI tumour cell line growth inhibition, 48 h; in the data active means GI50 below about 0.43 µM; inactive means the rest
*1 amine or outer side, *2 acyl side, *3 side chain or, on linkers, in order; H or OH if unused. Where a SMILES comes first, the peptide text is derived from it. CO = O=C([*:1])[*:2]
Possible outcomes: active, inactive

# compound, group.label
records = [
    ("CCN(CC)CCCN1C(=O)c2c(c(C)c3c(oc4cc(O)ccc43)c2C)C1=O", "inactive"),
    ("O=[N+]([O-])c1ccccc1/C=C/C=C1c2ccccc2-c2ccccc21", "inactive"),
    ("COc1cc(/C=C/C(=O)CC(=O)/C=C/c2ccc(OC(=O)CCNC34CC5CC(CC(C5)C3)C4)c(OC)c2)ccc1OC(=O)CCNC12CC3CC(CC(C3)C1)C2", "inactive"),
    ("CCC[C@H](Nc1nc(-c2ccc(NC(=O)NCC)c(OC)c2)ncc1C)c1cccnc1", "active"),
    ("CC(=O)[CH-]C(C)=O.CC(=O)[CH-]C(C)=O.CC(=O)[CH-]C(C)=O.[Cl-].[Hf+4]", "inactive"),
    ("CCC(=O)Nc1ccc2c(c1)CN1C(=O)c3ccccc3C1=N2", "inactive"),
    ("C[C@]12CC[C@H]3[C@@H](CC=C4C[C@@H](O)CC[C@@]43C)[C@@H]1C/C(=C\\c1cccc(OCCCn3ccnc3)c1)[C@@H]2O", "inactive"),
    ("CC(C)C(NC(=O)C(CCCN=C(N)N)NC(=O)NC(Cc1ccccc1)C(=O)O)C(=O)NC(C=O)CCCN=C(N)N (stereo not drawn) ({Phe-CO}-Arg-Val-Arg-aldehyde; configuration not given here)", "inactive"),
    ("O=C1CN2CCC1C/C2=C\\c1ccnc2c(Cl)cccc12 (stereo not given)", "inactive"),
    ("O=C(/C=C/C12c3ccccc3C(c3ccccc31)C1C(=O)NC(=O)C12)c1ccco1 (stereo not given)", "inactive"),
]
